Target: T1, cSNK:BSA conjugate (bovine, head-to-tail cyclized; conjugated to BSA carrier)
T1 construct: also called BSA-cSNK
T1 sequence (P02769 25-607 limits assumed): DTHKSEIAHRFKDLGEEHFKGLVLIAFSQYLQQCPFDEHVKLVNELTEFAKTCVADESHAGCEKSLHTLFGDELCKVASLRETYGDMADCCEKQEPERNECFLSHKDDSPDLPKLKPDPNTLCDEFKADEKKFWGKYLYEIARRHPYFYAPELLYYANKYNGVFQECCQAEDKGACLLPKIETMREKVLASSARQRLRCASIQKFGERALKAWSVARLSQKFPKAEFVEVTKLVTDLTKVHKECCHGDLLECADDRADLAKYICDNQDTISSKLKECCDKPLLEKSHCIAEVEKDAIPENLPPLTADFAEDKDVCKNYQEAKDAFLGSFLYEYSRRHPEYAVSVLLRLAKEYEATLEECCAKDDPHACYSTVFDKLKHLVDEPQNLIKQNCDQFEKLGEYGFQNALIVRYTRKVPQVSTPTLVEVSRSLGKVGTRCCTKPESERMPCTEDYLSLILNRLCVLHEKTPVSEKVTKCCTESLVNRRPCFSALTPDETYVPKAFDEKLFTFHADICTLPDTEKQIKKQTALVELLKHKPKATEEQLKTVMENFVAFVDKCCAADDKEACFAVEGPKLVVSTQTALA
Experiment: BLI 2:1 fit, site 2 (kon2); 3.13 nM row
value.kind: kon (M⁻¹ s⁻¹)
Give just the number in M⁻¹ s⁻¹; leave the unit off.

Recorded result, hu5E3-IgG1 (antibody, V domains shown, human IgG1/kappa; also called humanized 5E3 IgG1; IHA variant) VH: QVQLQQSGPEVKKPGASVKISCKASGYIFTSYYIQWVIHAPGQGLEWIGWIYPGNVNTKYNEKFKGKATLTADKSSSTAYMELSSLTSEDTAVYFCARMDYEAHYWGQGTTVTVSS VL: DIQMTQSPSSLSASVGDRVTITCRASQEISGYLTWLQQKPEGAIKRLIYAASTLDSGVPKRFSGSRSGSDYSLTISSLQPEDFATYNCLQYANYPRTFGGGTKLEIK , kon: 6.56e+06

The values you see were collected from patent US20170008955A1.
